- Experimental system: D(1A) dopamine receptor (Homo sapiens)
- Assay info: Allosteric Agonists of the Human D1 Dopamine Receptor: qHTS; also: 0% is about no effect
- Cond: HEK293 T-REx D1 cells, calcium flux, agonist mode; at 2 µM; stronger effect = higher value
The campaign covered roughly 360,000 compounds. About 3,700 (1%) were called active. The full list was thinned out, with actives kept by preference.
Recorded activation for the following compounds
A number alone suffices; assume %.

CCOC(=O)c1cc(-c2ccccc2)n(CCC(=O)Nc2ccccc2CC)c1C : 5.65
O=C(NCc1ccc2c(c1)CCN2C(=O)c1ccccc1)c1ccccc1 : 2.65
Cc1c(NC(=O)c2cc(=O)c3ccccc3o2)c(=O)n(-c2ccccc2)n1C : -0.0323

Find the measured activation of COc1cccc(CNC(=O)CCc2nc(-c3ccc(C)cc3)no2)c1 and report it.
3.85

Find the measured activation of Cc1ccc(-c2nn(-c3ccccc3)cc2/C=C2\SC(=S)N(CCCCCC(=O)O)C2=O)o1 and report it.
44.7

Find the measured activation of CCOc1ccccc1CNC(=O)c1ccc2c(c1)nc1n2CCC(C)C1 (stereo unspecified) and report it.
-0.796

Find the measured activation of CCOC(=O)CC1C(=O)NCCN1c1nc2c(C)cccn2c(=O)c1/C=C1\SC(=S)N(C(C)CC)C1=O (stereo unspecified) and report it.
265

Find the measured activation of CCn1c(=O)cc(OCC(=O)Nc2cc(Cl)c(OC)cc2OC)c2ccccc21 and report it.
0.964

====

- Experimental system: D(1A) dopamine receptor (Homo sapiens)
- Assay info: Allosteric Agonists of the Human D1 Dopamine Receptor: qHTS; also: 0% is about no effect
- Cond: HEK293 T-REx D1 cells, calcium flux, agonist mode; at 2 µM; stronger effect = higher value
- Experimental: NIH Chemical Genomics Center [NCGC] NIH Molecular Libraries Probe Centers Network [MLPCN] […] Freshly passaged cells are plated in 1536 well black, clear bottom plates at a density of 4000 cells/well in 3 ul of complete media containing 1x tetracycline inducer. […] Agonist read: A 10 cycle (1 second/cycle) baseline measurement is taken and then the FDSS online 1536 pintool delivers 23 nl of compound library (as well as dopamine controls) to the plate. […]
Screen size: about 360,000 compounds; about 3,700 (1%) were called active. This excerpt belongs to a sample that is enriched for actives.
Please mark 1.0 if the recorded activation is equal to or greater than 6%, and 0.0 if it falls below.

Given Cc1ccc(NC(=O)CN2C(=O)NC(C)(c3ccc(Cl)cc3)C2=O)c(Br)c1 (stereo not given) , state whether its activation is at least 6%.
1.0

Given Cc1ccc2nsnc2c1NC(=O)c1ccccc1[N+](=O)[O-] , state whether its activation is at least 6%.
1.0

Given Cc1ccc2nc(N3CCN(c4cccc(Cl)c4)CC3)c3nnnn3c2c1 , state whether its activation is at least 6%.
0.0

Given CCC(C(=O)Nc1cccc(-c2nc3cccnc3s2)c1C)c1ccccc1 (stereo not given) , state whether its activation is at least 6%.
1.0

Given CC1CN(C(=O)CN2C(=O)NC(C)(c3ccccc3)C2=O)CC(C)O1 (stereo not given) , state whether its activation is at least 6%.
0.0

Given Cc1ccc(Cl)cc1NC(=O)CSc1nc2ccccc2nc1Cc1ccccc1 , state whether its activation is at least 6%.
0.0

Given COc1ccc(C(=O)CN2C(=O)NC(C)(c3ccc(C)cc3)C2=O)cc1OC (stereo not given) , state whether its activation is at least 6%.
1.0

Given CCOc1ccc(CNC(=O)Cn2cc3c(n2)-c2c(oc(C(=O)N4CCCC4)c2C)CC3)cc1 , state whether its activation is at least 6%.
0.0

Given CC1(c2ccc(Cl)cc2Cl)NC(=O)N(CC(=O)Nc2cccnc2Cl)C1=O (stereo not given) , state whether its activation is at least 6%.
0.0
